Would you kindly list relative viability for each of these molecules?
test system: RERF-LC-KJ; assay: relative viability (nuclei count vs DMSO), 5 days (fraction); higher = more cells survive; details: first compound 20 µM
One number for each entry.

Examples with their reported relative viability follow.
COCC1(CO)C(=O)C2CCN1CC2 (centres undefined) [PRIMA-1MET] + Cc1cc(Nc2cc(N3CCN(C)CC3)nc(Sc3ccc(NC(=O)C4CC4)cc3)n2)n[nH]1 [Tozasertib] (partner 0.1 µM) : 0.431
COCC1(CO)C(=O)C2CCN1CC2 (centres undefined) [PRIMA-1MET] + O=C(c1cc(Cc2n[nH]c(=O)c3ccccc23)ccc1F)N1CCN(C(=O)C2CC2)CC1 [Olaparib] (partner 8 µM) : 0.922
COCC1(CO)C(=O)C2CCN1CC2 (centres undefined) [PRIMA-1MET] + Nc1ncn([C@H]2C[C@H](O)[C@@H](CO)O2)c(=O)n1 [Decitabine] (partner 2 µM) : 0.595

Here is another molecule to look at.
Query :: Which relative viability is listed for COCC1(CO)C(=O)C2CCN1CC2 (centres undefined) [PRIMA-1MET] + C[C@]1(O)C[C@@H](c2nc(-c3ccc4ccc(-c5ccccc5)nc4c3)c3c(N)nccn32)C1 [Linsitinib] (partner 1 µM) ?
Result :: 0.875

###

Please go through the items and note down their relative viability.
system: NCI-H838; assay: relative viability (nuclei count vs DMSO), 5 days (fraction); higher = more cells survive; conditions: first compound 20 µM
Numbers only.

COCC1(CO)C(=O)C2CCN1CC2 (configuration not stated) [PRIMA-1MET] + CC(=O)Nc1cccc(-n2c(=O)n(C3CC3)c(=O)c3c(Nc4ccc(I)cc4F)n(C)c(=O)c(C)c32)c1 [Trametinib] (partner 0.02 µM) : 0.557
COCC1(CO)C(=O)C2CCN1CC2 (configuration not stated) [PRIMA-1MET] + COc1cc2c(Oc3ccc(NC(=O)C4(C(=O)Nc5ccc(F)cc5)CC4)cc3F)ccnc2cc1OCCCN1CCOCC1 [Foretinib] (partner 0.25 µM) : 0.683
COCC1(CO)C(=O)C2CCN1CC2 (configuration not stated) [PRIMA-1MET] + CS(=O)(=O)CCNCc1ccc(-c2ccc3ncnc(Nc4ccc(OCc5cccc(F)c5)c(Cl)c4)c3c2)o1 [Lapatinib] (partner 2 µM) : 0.197
COCC1(CO)C(=O)C2CCN1CC2 (configuration not stated) [PRIMA-1MET] + CCNC(=O)c1noc(-c2cc(C(C)C)c(O)cc2O)c1-c1ccc(CN2CCOCC2)cc1 [Luminespib] (partner 0.01 µM) : 0.189
COCC1(CO)C(=O)C2CCN1CC2 (configuration not stated) [PRIMA-1MET] + Cc1cc(Nc2cc(N3CCN(C)CC3)nc(Sc3ccc(NC(=O)C4CC4)cc3)n2)n[nH]1 [Tozasertib] (partner 0.1 µM) : 0.194
COCC1(CO)C(=O)C2CCN1CC2 (configuration not stated) [PRIMA-1MET] + CC(=O)c1c(C)c2cnc(Nc3ccc(N4CCNCC4)cn3)nc2n(C2CCCC2)c1=O [Palbociclib] (partner 0.5 µM) : 0.232

Proceeding to the next molecule to report its relative viability.
Query :: Query (molecule): COCC1(CO)C(=O)C2CCN1CC2 (configuration not stated) [PRIMA-1MET] + NC(=O)Nc1cc(-c2cccc(F)c2)sc1C(=O)N[C@H]1CCCNC1 [AZD7762] (partner 0.2 µM) ; field requested: relative viability
Result :: 0.849
